The values you see were collected from PubChem BioAssay.

# subject-of-test: Torsin-1A-interacting protein 2 (Homo sapiens) (UniProt Q8NFQ8)
# Sequence (Q8NFQ8 whole entry, looked up): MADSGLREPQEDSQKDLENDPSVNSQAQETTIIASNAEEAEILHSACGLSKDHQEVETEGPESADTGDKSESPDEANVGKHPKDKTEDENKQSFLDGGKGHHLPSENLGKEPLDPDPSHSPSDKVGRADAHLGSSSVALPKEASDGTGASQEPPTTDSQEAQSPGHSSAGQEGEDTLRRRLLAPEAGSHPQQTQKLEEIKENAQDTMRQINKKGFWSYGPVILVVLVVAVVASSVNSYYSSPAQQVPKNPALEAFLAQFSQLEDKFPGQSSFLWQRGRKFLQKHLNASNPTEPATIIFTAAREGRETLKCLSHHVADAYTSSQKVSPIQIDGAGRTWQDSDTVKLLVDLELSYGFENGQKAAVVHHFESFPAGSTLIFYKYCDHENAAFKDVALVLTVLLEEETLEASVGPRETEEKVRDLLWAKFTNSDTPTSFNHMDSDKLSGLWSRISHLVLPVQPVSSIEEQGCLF
# protocol-summary: small molecules binding lysate-expressed LULL1 – cell lysate, human LULL1 lysate, 635/667 nm fluorescence, primary screen (AID 1092);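 further: probe is lysate of COS7 cells overexpressing human LULL1; score merges per-feature 667 nm fluorescence with signal-to-noise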
# condition: small-molecule microarray, hLULL1 lysate binding, 635 nm fluorescence; higher = more signal
measurement-type: composite z-score

>>> recorded_result("COC(=O)[C@@]1(Cc2ccccc2)[C@H]2c3cc(C(=O)N(C)C)n(Cc4ccccn4)c3C[C@H]2CN1C(=O)c1ccccc1")
3.68
>>> recorded_result("[N-]=[N+]=Nc1ccccc1[C@H]1OC(c2ccc(OCCCO)cc2)=N[C@@]1(Cc1ccccc1)C(=O)NCc1ccccc1")
2.79
>>> recorded_result("Cc1ccc(S[C@]2(C(=O)O)CC(=O)N(Cc3ccccc3C(F)(F)F)[C@@H]2c2ccc(CO)cc2)cc1")
1.87
>>> recorded_result("CCCC=C(CCC)[C@@H](NS(=O)(=O)c1cccc2cccnc12)c1ccc(C(=O)OC)cc1")
0.472
>>> recorded_result("COCCCNC(=O)[C@]1(Cc2ccccc2CN=[N+]=[N-])N=C(c2ccc(OCCCO)cc2)O[C@@H]1c1ccccc1CN=[N+]=[N-]")
3.17
>>> recorded_result("NC(=O)NCC#Cc1ccc2c(c1)[C@]1(C(=O)N2)[C@H](c2ccc(OCCO)cc2)N2[C@H](c3ccccc3)[C@H](c3ccccc3)OC(=O)[C@H]2[C@@H]1C(=O)N1CCCCCCC1")
3.3
>>> recorded_result("C=CCOc1ccc([C@@H]2CC=C(C(=O)OCC)[C@H](c3cccc(Br)c3)N2S(=O)(=O)c2ccc(C)cc2)cc1")
0.652
>>> recorded_result("COCCCNC(=O)[C@@]1(C)c2ccccc2C(=O)N(c2ccc(C)cn2)[C@H]1c1ccc(CO)cc1")
3.55
>>> recorded_result("C[C@@]1([C@@H](NC(=O)c2cccs2)c2ccc(-c3ccccc3)cc2)C[C@H]1C1CCCCC1")
2.95
>>> recorded_result("C#CCOC(=O)N[C@H](C=CCCCC)c1ccccc1")
2.96
>>> recorded_result("CC(C)N1C(=O)c2ccccc2[C@](C)(C(=O)O)[C@@H]1c1ccc(CO)cc1")
1.32
>>> recorded_result("CCC[C@@H]1C[C@@]1(CCC)[C@@H](NC(=O)c1cccs1)c1ccc(Cl)cc1")
1.4
>>> recorded_result("C=C(COC)C(=O)CC[C@H](OC(=O)c1ccccc1-c1ccccc1C(=O)O)c1ccc(CO)o1")
1.37
>>> recorded_result("Cc1ccc(S[C@]2(C(=O)NCC(C)C)CC(=O)N(C3CCCCC3)[C@@H]2c2ccc(CO)cc2I)cc1")
2.59
>>> recorded_result("COC(=O)C(CC#Cc1ccc2c(c1)[C@]1(C(=O)N2)[C@H](C(=O)N2CCc3cc(OC)c(OC)cc3C2)[C@H]2C(=O)O[C@H](c3ccccc3)[C@H](c3ccccc3)N2[C@@H]1c1ccc(O)cc1)C(=O)OC")
2.83
>>> recorded_result("O=C1C[C@@](C(=O)NCc2ccccc2)(c2ccc([N+](=O)[O-])cc2)[C@@H](c2ccc(CO)cc2I)N1C1CCCCC1")
2.38
